Measured values drawn from the kinase profiling compilation of Christmann-Franck et al. (2016) for this set.

measurement.target: PRKCB1 (human)
protocol.summary: radiometric filter-binding kinase assay, Kinase HotSpot
cond: compound 0.5 µM; ATP 10 µM
Provide the reported residual activity of each item.
Numbers only, in %.

# count of solved cases: 5
smiles.representation | measured.value
CCC(=O)Nc1ccc2ncnc(Nc3cccc(Br)c3)c2c1 | 99.2
CC#CC(=O)Nc1cc2c(Nc3ccc(F)c(Cl)c3)ncnc2cn1 | 97.4
CNC(=O)c1cc(Oc2ccc(NC(=O)Nc3ccc(Cl)c(C(F)(F)F)c3)cc2)ccn1 | 95.1
Nc1ncnc2[nH]nc(Nc3ccc(F)cc3)c12 | 95.9
Oc1cccc(-c2nc(N3CCOCC3)c3oc4ncccc4c3n2)c1 | 97.8

Return reported residual activity values for all items listed beneath this line.
1. Cc1ccc(Nc2nccc(N(C)c3ccc4c(C)n(C)nc4c3)n2)cc1S(N)(=O)=O
2. O=C1NC(=O)C(c2cn(CCCn3ccnc3)c3ccccc23)=C1Nc1ccccc1
3. O=C1NC(=O)c2c1c1c3ccccc3n3c1c1c2c2ccccc2n1C1CCC3O1
4. c1ccc(-c2n[nH]c3c2oc2ccccc23)cc1
5. CCOC(=O)c1c(C)[nH]c(/C=C2\C(=O)Nc3ccccc32)c1C

Data returned:
[91, 9.78, 22.5, 103, 103]

====

Provide the reported residual activity of each item.
measurement.target: ADRBK1 (human) (UniProt P25098)
Sequence (P25098 whole entry, looked up): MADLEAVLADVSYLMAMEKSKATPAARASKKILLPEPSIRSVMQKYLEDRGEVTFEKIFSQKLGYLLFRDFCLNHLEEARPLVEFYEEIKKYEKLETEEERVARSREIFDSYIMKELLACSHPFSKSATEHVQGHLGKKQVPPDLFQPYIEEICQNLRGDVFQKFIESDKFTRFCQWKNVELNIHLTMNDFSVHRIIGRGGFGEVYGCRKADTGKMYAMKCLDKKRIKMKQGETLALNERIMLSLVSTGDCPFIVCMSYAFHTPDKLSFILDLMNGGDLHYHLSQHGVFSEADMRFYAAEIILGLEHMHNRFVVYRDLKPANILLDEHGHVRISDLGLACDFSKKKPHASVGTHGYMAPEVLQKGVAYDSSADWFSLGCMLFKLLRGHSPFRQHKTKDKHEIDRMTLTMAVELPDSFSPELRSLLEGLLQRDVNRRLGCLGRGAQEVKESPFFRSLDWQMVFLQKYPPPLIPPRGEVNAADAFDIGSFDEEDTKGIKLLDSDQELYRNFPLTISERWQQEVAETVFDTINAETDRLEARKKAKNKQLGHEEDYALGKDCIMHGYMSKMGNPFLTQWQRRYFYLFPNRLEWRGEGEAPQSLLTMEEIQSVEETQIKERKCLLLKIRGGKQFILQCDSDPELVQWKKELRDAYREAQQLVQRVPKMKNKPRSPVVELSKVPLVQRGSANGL
protocol.summary: radiometric filter-binding kinase assay, Kinase HotSpot
cond: compound 0.5 µM; ATP 10 µM
Report field: quantity (unit follows the number).

Return reported residual activity values for all items listed beneath this line.
1. CCN(CC)C(=O)c1ccc(Nc2nc(OCC3CCCCC3)c3nc[nH]c3n2)cc1
2. Nc1ncnc2c1c(-c1ccc(Oc3ccccc3)cc1)cn2C1CCCC1
3. CCN(CC)CCNC(=O)c1c(C)[nH]c(/C=C2\C(=O)Nc3ccc(Cl)cc32)c1C
4. N#C/C(=C(/N)Sc1ccc(N)cc1)c1ccccc1C(F)(F)F
5. N#CC(C#N)=C(N)/C(C#N)=C/c1ccc(O)cc1
6. CCN(CC)CCNC(=O)c1c(C)[nH]c(/C=C2\C(=O)Nc3ccc(F)cc32)c1C
7. Nc1ncnc2[nH]nc(Nc3ccc(F)cc3)c12

Data returned:
1: 92.6%; 2: 97.8%; 3: 104%; 4: 114%; 5: 104%; 6: 94.7%; 7: 98.6%

Return reported residual activity values for all items listed beneath this line.
1. Cc1ccc(NC2=CC(=O)c3sc(C)nc3C2=O)cc1
2. CCCC(=O)Oc1ccc2[nH]c(C(=O)c3cc4ccccc4[nH]3)cc2c1
3. c1ccc(-c2n[nH]cc2-c2ccnc3ccccc23)nc1
4. O=C1NC(=O)c2c1c1c3ccccc3n3c1c1c2c2ccccc2n1C1CCC3O1
5. CNc1cc2c(Nc3cccc(Br)c3)ncnc2cn1
6. Nc1ccc2ncnc(NCCc3ccc(Oc4ccccc4)cc3)c2c1
7. CC#CC(=O)Nc1cc2c(Nc3ccc(F)c(Cl)c3)ncnc2cn1
8. CNC(=O)c1cc(Oc2ccc(NC(=O)Nc3ccc(Cl)c(C(F)(F)F)c3)cc2)ccn1

Data returned:
1. 96.6%
2. 101%
3. 101%
4. 97.9%
5. 97%
6. 91.5%
7. 98.3%
8. 112%

====

Provide the reported residual activity of each item.
measurement.target: CAMK1G (human)
protocol.summary: radiometric filter-binding kinase assay, Kinase HotSpot
cond: compound 0.5 µM; ATP 10 µM
One number for each entry, in %.

# count of solved cases: 8
molecule | measured.value
c1ccc(-c2n[nH]cc2-c2ccnc3ccccc23)nc1 | 102
Nc1cccc(-c2cc3c(Oc4cccc(O)c4)ncnc3[nH]2)c1 | 99
CC(=O)c1ccc(N2CCOCC2)cc1O | 101
Cc1ccc(S(=O)(=O)/C=C/C#N)cc1 | 99.9
c1ccc(-c2n[nH]c3c2oc2ccccc23)cc1 | 100
O=C(Nc1cccc(Nc2nccc(Nc3cccc(C(F)(F)F)c3)n2)c1)C1CC1 | 98.8
COc1ccc2c(c[n+](C)c3c4cc5c(cc4ccc23)OCO5)c1OC | 100
Oc1cccc(-c2nc(N3CCOCC3)c3oc4ncccc4c3n2)c1 | 99.2

Return reported residual activity values for all items listed beneath this line.
1. CO[C@H]1CC2CC[C@@H](C)[C@@](O)(O2)C(=O)C(=O)N2CCCC[C@H]2C(=O)OC([C@H](C)C[C@@H]2CC[C@@H](O)[C@H](OC)C2)CC(=O)[C@H](C)/C=C(\C)[C@@H](O)[C@@H](OC)C(=O)[C@H](C)C[C@H](C)/C=C/C=C/C=C/1C (stereo partly specified)
2. CCOC(=O)c1c(C)[nH]c(/C=C2\C(=O)Nc3ccccc32)c1C
3. COc1cc2ncnc(Nc3cccc(Cl)c3)c2cc1OC

Data returned:
1: 93; 2: 98.2; 3: 93.6
